Data credit: the supplement of paper PMC11061612

Measured combination Emax accompanies every entry in the list below.
system: MES-SA (Other Solid Carcinomas); experiment: combination Emax (second highest fraction inhibited in the dose matrix, 72 h); higher = more inhibition; extreme values may be limits of the assay
Property: combination Emax

1. Cc1cc2ncnn2cc1Nc1ncc2c(n1)n(C1CCOCC1)c(=O)n2C [AZD7648] + CCN(CCO)CCCOc1ccc2c(Nc3cc(CC(=O)Nc4cccc(F)c4)[nH]n3)ncnc2c1 [AZD2811] (first compound max 10 µM, 7x7, partner max 1 µM) = 0.57
2. COc1nnc2ccc(N3CCC(c4ccc(OCCN5CCN(C)C(=O)[C@H]5C)cc4)CC3)nn12 [AZD5153] + CC1(C)CCC(CN2CCN(c3ccc(C(=O)NS(=O)(=O)c4ccc(NCC5CCOCC5)c([N+](=O)[O-])c4)c(Oc4cnc5[nH]ccc5c4)c3)CC2)=C(c2ccc(Cl)cc2)C1 [Venetoclax] (first compound max 1 µM, 7x7, partner max 1 µM) = 0.386
3. CC1(C)CCC(CN2CCN(c3ccc(C(=O)NS(=O)(=O)c4ccc(NCC5CCOCC5)c([N+](=O)[O-])c4)c(Oc4cnc5[nH]ccc5c4)c3)CC2)=C(c2ccc(Cl)cc2)C1 [Venetoclax] + Cc1cc2ncnn2cc1Nc1ncc2c(n1)n(C1CCOCC1)c(=O)n2C [AZD7648] (first compound max 1 µM, 7x7, partner max 10 µM) = 0.302
4. COc1nnc2ccc(N3CCC(c4ccc(OCCN5CCN(C)C(=O)[C@H]5C)cc4)CC3)nn12 [AZD5153] + CCN(CCO)CCCOc1ccc2c(Nc3cc(CC(=O)Nc4cccc(F)c4)[nH]n3)ncnc2c1 [AZD2811] (first compound max 1 µM, 7x7, partner max 1 µM) = 0.587

* * *

system: EW-22 (Ewing's Sarcoma); experiment: Bliss excess, mean over the matrix (fraction); higher = more synergy;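 also: after 72 h of two-drug dosing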
Measured Bliss excess accompanies every entry in the list below.
Property: Bliss excess

1) Cc1cc2ncnn2cc1Nc1ncc2c(n1)n(C1CCOCC1)c(=O)n2C [AZD7648] + C[C@@H]1COCCN1C2=NC(=NC(=C2)C3(CC3)[S@](=N)(=O)C)C4=C5C=CNC5=NC=C4 [AZD6738] (first compound max 10 µM, 7x7, partner max 10 µM) = 0.0058
2) N#Cc1cnc(Nc2cc(NC[C@H]3CNCCO3)c(C(F)(F)F)cn2)cn1 [SRA737] + C=CCn1c(=O)c2cnc(Nc3ccc(N4CCN(C)CC4)cc3)nc2n1-c1cccc(C(C)(C)O)n1 [AZD1775] (first compound max 10 µM, partner max 1 µM) = 0.0315
3) C=CCn1c(=O)c2cnc(Nc3ccc(N4CCN(C)CC4)cc3)nc2n1-c1cccc(C(C)(C)O)n1 [AZD1775] + C1CN(CCC1(C(=O)N[C@@H](CCO)C2=CC=C(C=C2)Cl)N)C3=NC=NC4=C3C=CN4 [Capivasertib] (first compound max 3 µM, partner max 3 µM) = 0.0403
4) Cn1cnc2c(F)c(Nc3ccc(Br)cc3Cl)c(C(=O)NOCCO)cc21 [Selumetinib] + C[C@@H]1COCCN1C2=NC(=NC(=C2)C3(CC3)[S@](=N)(=O)C)C4=C5C=CNC5=NC=C4 [AZD6738] (first compound max 10 µM, 7x7, partner max 10 µM) = -0.028

* * *

test system: GDM-1 (Acute Myeloid Leukemia); assay: combination Emax (second highest fraction inhibited in the dose matrix, 72 h); higher = more inhibition; extreme values may be limits of the assay
Measured combination Emax accompanies every entry in the list below.
Property: combination Emax

1) CC1(C)CCC(CN2CCN(c3ccc(C(=O)NS(=O)(=O)c4ccc(NCC5CCOCC5)c([N+](=O)[O-])c4)c(Oc4cnc5[nH]ccc5c4)c3)CC2)=C(c2ccc(Cl)cc2)C1 [Venetoclax] + COc1cc(Nc2ncc3c(n2)-c2ccc(Cl)cc2C(c2c(F)cccc2OC)=NC3)ccc1C(=O)O [Alisertib] (first compound max 1 µM, 7x7, partner max 10 µM) = 0.98
2) COc1cccc(OCCCN)c1-c1cc(Nc2cnc(C#N)cn2)n[nH]1 [Prexasertib] + Cc1cc2ncnn2cc1Nc1ncc2c(n1)n(C1CCOCC1)c(=O)n2C [AZD7648] (first compound max 1 µM, 7x7, partner max 10 µM) = 0.924
3) CN(C)CCCOc1ccc(-c2ccc3ncc4c(c3c2)n(C2CCOCC2)c(=O)n4C)cn1 [AZD0156] + O=C(c1cc(Cc2n[nH]c(=O)c3ccccc23)ccc1F)N1CCN(C(=O)C2CC2)CC1 [Olaparib] (first compound max 3 µM, partner max 3 µM) = 0.533
4) COc1cc2ncnc(Nc3ccc(F)c(Cl)c3)c2cc1OCCCN1CCOCC1 [Gefitinib] + CC(C)n1c(=O)n(C)c2cnc3cc(F)c(-c4ccc(OCCCN5CCCCC5)nc4)cc3c21 [AZD1390] (first compound max 10 µM, 7x7, partner max 0.3 µM) = 0.131
5) Cc1c2c(nn1C)CSCc1cc(n(C)n1)CSc1cc(c3ccccc3c1)OCCCc1c(C(=O)O)n(C)c3c-2c(Cl)ccc13 [AZD5991] + CCN(CCO)CCCOc1ccc2c(Nc3cc(CC(=O)Nc4cccc(F)c4)[nH]n3)ncnc2c1 [AZD2811] (first compound max 1 µM, 7x7, partner max 1 µM) = 0.949
6) CC(=O)c1c(C)c2cnc(Nc3ccc(N4CCNCC4)cn3)nc2n(C2CCCC2)c1=O [Palbociclib] + Cc1c2c(nn1C)CSCc1cc(n(C)n1)CSc1cc(c3ccccc3c1)OCCCc1c(C(=O)O)n(C)c3c-2c(Cl)ccc13 [AZD5991] (first compound max 10 µM, 7x7, partner max 1 µM) = 0.824
7) Cc1c2c(nn1C)CSCc1cc(n(C)n1)CSc1cc(c3ccccc3c1)OCCCc1c(C(=O)O)n(C)c3c-2c(Cl)ccc13 [AZD5991] + CN(C)CCCOc1ccc(-c2ccc3ncc4c(c3c2)n(C2CCOCC2)c(=O)n4C)cn1 [AZD0156] (first compound max 1 µM, 7x7, partner max 1 µM) = 0.549
